Tested on: GABAA receptor
Test: GABAA receptor mediated chloride currents evoked on cultured neurones
Type: cell-based
measured.metric: pEC50
On this scale, pEC50 is minus log10 of a concentration expressed in M (mol/L).

Prompt line: Which pEC50 value belongs to [H]/N=C(/N)NCC(=O)O [GAA, guanidinoacetate] ?
Response line: 3.79

====

Tested on: T-type calcium channels (low voltage-activated calcium currents)
Format: cell-based, mouse
Settings: depolarizations to −50 mV from holding potential −100 mV; read-out: IC50 of I-LVA inhibition (Hill function)
measured.metric: IC50 (µM)
# output: bare number, implied unit µM

Prompt line: Which IC50 value belongs to COCC(=O)O[C@]1(CCN(C)CCCc2nc3ccccc3[nH]2)CCc2cc(F)ccc2[C@@H]1C(C)C ?
Response line: 4.6
